- test_name: Solubility in water
- Assay type: physicochemical
solubility reference
Give the value in µg/mL but do not write µg/mL after it.

# smiles_text, measurement_units, solubility
rows = [
    ("Clc1cc(N2C[C@@H]3CN[C@@H]3C2)cnc1Cl.O=C(O)/C=C\\C(=O)O", "µg/mL", 7500),
    ("CC(=O)O.Clc1cc(N2C[C@@H]3CN[C@@H]3C2)cnc1Cl", "µg/mL", 13400),
]

[ask] May I ask what solubility has been recorded for `Clc1cc(N2C[C@@H]3CN[C@@H]3C2)cnc1Cl.O=C(O)/C=C/C(=O)O` ?
[reply] 2900
